- Test system: human squamous cell carcinoma (FaDu)
- testName: SRB cytotoxicity assay, FaDu
- Type: cell-based
- measurementConditions: 72 h, read-out: Cytotoxicity (IC50) FaDu
pIC50: −log10 of the molar value.

{"molecule": "COc1c(C)c(O)c(C)c(O)c1C(=O)/C=C/c1ccccc1", "pIC50": 4.43}
{"molecule": "CCCCCC(=O)Oc1c(C)c(O)c(C(=O)/C=C/c2ccccc2)c(OC)c1C", "pIC50": 4.72}
{"molecule": "COc1c(C)c(OC(=O)c2ccccc2)c(C)c(O)c1C(=O)/C=C/c1ccccc1", "pIC50": 4.42}
{"molecule": "Cc1c2ccncc2c(C)c2c1[nH]c1ccccc12 [Ellipticine, reference compound]", "pIC50": 5.69}
{"molecule": "CCCC(=O)Oc1c(C)c(O)c(C(=O)/C=C/c2ccccc2)c(OC)c1C", "pIC50": 4.51}
{"molecule": "COc1c(C)c(OS(=O)(=O)c2ccc3ccccc3c2)c(C)c(O)c1C(=O)/C=C/c1ccccc1", "pIC50": 4.68}
{"molecule": "C=CCOc1c(C)c(O)c(C(=O)/C=C/c2ccccc2)c(OC)c1C", "pIC50": 4.54}
{"molecule": "CCCCCCCCCC(=O)Oc1c(C)c(O)c(C(=O)/C=C/c2ccccc2)c(OC)c1C", "pIC50": 4.46}
{"molecule": "COc1c(C)c(OC)c(C(=O)/C=C/c2ccccc2)c(OC)c1C", "pIC50": 4.71}
{"molecule": "COc1c(C)c(OCc2ccccc2)c(C)c(O)c1C(=O)/C=C/c1ccccc1", "pIC50": 4.85}
{"molecule": "CCCCCCCC(=O)Oc1c(C)c(O)c(C(=O)/C=C/c2ccccc2)c(OC)c1C", "pIC50": 4.69}
{"molecule": "COc1c(C)c(OC(=O)c2ccc(C)cc2)c(C)c(O)c1C(=O)/C=C/c1ccccc1", "pIC50": 4.66}
{"molecule": "COc1c(C)c(OC(C)=O)c(C)c(O)c1C(=O)/C=C/c1ccccc1", "pIC50": 4.44}
{"molecule": "COc1c(C)c(OC(C)=O)c(C)c(OC(C)=O)c1C(=O)/C=C/c1ccccc1", "pIC50": 4.47}
